- ASSAY SYSTEM: K-Ras^G12C : hSOS1 interaction (Homo sapiens, UniProt Q07889)
- RUN DESCRIPTION: Biochemical assay 1: K-Ras^G12C interaction assay with hSOS1 (HTRF)
- Type: binding
- MEASUREMENT CONDITIONS: read-out: Assay 1 (KRAS-SOS Interaction) activity expressed as IC50
MEASUREMENT KIND: log10(IC50) (log10 of the value in µM)

>>> print(df.to_string())
                                    molecule  obs_value
 0  COc1cc2nc(C)nc(NC(C)c3ccc(-c4ccccc4CNCC(=O)c4c[nH]c5ccccc45)s3)c2cc1OC (stereo not shown) [Example 277]      -0.67
 1  COc1cc2nc(C)nc(NC(C)c3ccc(-c4ccccc4C(N)=O)s3)c2cc1OC (stereo not shown) [Example 240]       0.51
 2  COc1cc2nc(C)nc(N[C@H](C)c3ccc(S(C)(=O)=O)cc3)c2cc1OC [Example 188]       1.20
 3  COc1cc2nc(C)nc(NC(C)c3ccc(-c4ccccc4CN(C)CC(F)F)s3)c2cc1OC (stereo not shown) [Example 291]       0.05
 4  COc1cc2nc(C)nc(NC(C)c3ccc(Br)o3)c2cc1OC (stereo not shown) [Example 208]       0.78
 5  COc1cc2nc(C)nc(N[C@H](C)c3cccc(-c4cccc(S(N)(=O)=O)c4)c3)c2cc1OC [Example 61]      -0.43
 6  COc1cc2nc(C)nc(N[C@H](C)c3cccc(-c4cn[nH]c4)c3)c2cc1OCC1COC1 [Example 354]      -0.50
 7  COc1cc2nc(C)nc(N[C@H](C)c3cccc(-c4cnc5n4CCC5)c3)c2cc1OC [Example 261]      -0.08
 8  COc1cc2nc(C)nc(N[C@@H](C)c3ccc(/C=C/C4CC4)s3)c2cc1OC (racemic) [Example 132]       0.82
 9  COc1cc2nc(C)nc(NC(C)c3ccc(-c4ccccc4C(C)=O)s3)c2cc1OC (stereo not shown) [Example 324]       0.11
10  COc1cc2nc(C)nc(N[C@@H](C)c3ccc(-c4cccc(C(F)(F)F)c4)s3)c2cc1OC (racemic) [Example 168]       1.09
11  COc1cc2nc(C)nc(N[C@H](C)c3cccc(-c4ccc(C(C)(C)C#N)cc4)c3)c2cc1OC [Example 69]       0.59
12  C=Cc1ccccc1-c1ccc(C(C)Nc2nc(C)nc3cc(OC)c(OC)cc23)s1 (stereo not shown) [Example 248]       0.17
13  COc1cc2nc(C)nc(NC(C)c3ccc(-c4ccccc4[C@@H](C)NC(=O)OC(C)(C)C)s3)c2cc1OC (stereo in doubt) [Example 358]       0.16
14  COc1cc2nc(C)nc(N[C@H](C)c3cccc(C4=CCCC4)c3)c2cc1OC [Example 117]       0.22
15  COc1cc2nc(C)nc(NC(C)c3ccc(-c4ccccc4CN4CC(N(C)C)C4)s3)c2cc1OC (stereo not shown) [Example 319]      -0.79
